- Test system: T1, recombinant his-tag human LAG3-ECD protein (human, UniProt P18627 23-450)
- T1 construct: extracellular domain; not shown: his tag
- T1 sequence (looked up): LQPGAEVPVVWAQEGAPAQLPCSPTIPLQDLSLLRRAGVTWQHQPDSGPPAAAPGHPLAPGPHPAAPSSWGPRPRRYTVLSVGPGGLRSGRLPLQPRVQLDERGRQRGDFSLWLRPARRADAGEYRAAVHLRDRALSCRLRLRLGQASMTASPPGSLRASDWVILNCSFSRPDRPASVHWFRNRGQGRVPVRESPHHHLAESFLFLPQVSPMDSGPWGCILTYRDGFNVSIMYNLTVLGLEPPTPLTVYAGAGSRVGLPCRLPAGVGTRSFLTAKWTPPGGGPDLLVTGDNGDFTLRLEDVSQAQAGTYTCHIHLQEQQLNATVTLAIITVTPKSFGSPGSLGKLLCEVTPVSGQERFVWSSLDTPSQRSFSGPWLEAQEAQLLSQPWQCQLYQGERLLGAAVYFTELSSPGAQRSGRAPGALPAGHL
- Assay notes: SPR Biacore T200, capture method as Example 2.7
Observation type: Kd (nM)
Response body: numeric value in nM, unit text excluded.

Previously resolved entries follow.
147H 3810 (antibody, V domains shown, also called B3810) VH: EVQLVQSGAEVKKPGASVKVSCKASGYLFTNYWLGWIKQAPGQGLEWIGDIYPGGDYIVYNEKFKGKATLTADTSISTAYMELSRLRSDDTAVYYCARPNLPKDHWGQGTTVTVSS VL: DIVMTQSPLSLPVTPGEPASISCRSSKSLLHSNAITYLYWYLQKPGQSPQLLIYQVSNLATGVPDRFSGSGSGTDFTLKISRVEAEDVGVYYCAQYLELPWTFGGGTKVEIK	0.41
147H 3790 (antibody, V domains shown) VH: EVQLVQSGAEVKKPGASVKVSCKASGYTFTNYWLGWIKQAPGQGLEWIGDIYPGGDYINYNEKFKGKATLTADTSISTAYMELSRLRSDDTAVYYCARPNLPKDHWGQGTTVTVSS VL: DIVMTQSPLSLPVTPGEPASISCRSSKSLLHSNAITYLYWYLQKPGQSPQLLIYQVSNLATGVPDRFSGSGSGTDFTLKISRVEAEDVGVYYCAQNLELPWTFGGGTKVEIK	5.9

Continue with the binder presented below.
Exercise: // query Kd value for entry 147H 3663 (antibody, V domains shown) VH: EVQLVQSGAEVKKPGASVKVSCKASGYTFENYWLGWIKQAPGQGLEWIGDIYPGGDYIVYNEKFKGKATLTADTSISTAYMELSRLRSDDTAVYYCARPNLPGDYWGQGTTVTVSS VL: DIVMTQSPLSLPVTPGEPASISCRSSKSLLHSNAITYLYWYLQKPGQSPQLLIYQVSNLARGVPDRFSGSGSGTDFTLKISRVEAEDVGVYYCAQNLELPWTFGGGTKVEIK
Key: 6.8
